- Tested on: SN12C
- ASSAY DETAILS: NCI tumour cell line growth inhibition, 48 h
The source made the active and inactive calls. Rule as the data show it: active = GI50 up to about 1.1 µM and inactive = higher.
For each entry below, report its GI50 value.

Worked examples, 8 compounds total:
INSERT INTO results (compound, test_result) VALUES
  ('NC(=S)N/N=C\c1ccc(OCc2cccc(COc3ccc(/C=N/NC(N)=S)cc3)n2)cc1', '> 100 µM (inactive)'),
  ('CC1(C)[C@@H](Cn2cnc3c(O)nc(N)nc32)CC[C@@]1(C)CO', '> 100 µM (inactive)'),
  ('CC1C[C@]2(C)C(=S)Nc3ccccc3[C@@H]2Nc2ccccc21 (stereo not given in full)', '17.9 µM (inactive)'),
  ('CN(Cc1cnc2nc(N)nc(N)c2n1)c1ccc(C(=O)NC(CCC(=O)NC(CC(P(=O)(O)O)P(=O)(O)O)C(=O)O)C(=O)O)cc1 (stereo not given)', '> 100 µM (inactive)'),
  ('O=C(/C=C1\Nc2ccccc2N\C1=C/C(=O)c1ccc(F)cc1)c1ccc(F)cc1', '> 100 µM (inactive)'),
  ('CC1=C(C(=O)NCCc2ccccc2)CC(C(=O)NCCc2ccccc2)=C(C)N1', '> 100 µM (inactive)'),
  ('COc1ccc2c(c1)CCCC(Br)C2=O (stereo not given)', '2.75 µM (inactive)'),
  ('C=C(C)C1CC2=C(C(=O)OC)C=C(O2)C(C(=C)C)[C@@H]2OC(=O)/C(=C\C1O)[C@H]2N(C)C (stereo not given in full)', '12.5 µM (inactive)');

For the 2 compounds below, give their GI50 values.
1. O=C1C2Nc3ccccc3SC2C(=O)N1c1ccccc1C(F)(F)F (stereo not given)
2. CCOP(=O)(OCC)/C(C#N)=C/c1ccco1

A:
1. 27.2 µM (inactive)
2. > 100 µM (inactive)

Source listed as ChEMBL document CHEMBL1201862.
